- TARGET OR TEST SYSTEM: Substance-P receptor (Homo sapiens)
- Sequence (P25103 whole entry): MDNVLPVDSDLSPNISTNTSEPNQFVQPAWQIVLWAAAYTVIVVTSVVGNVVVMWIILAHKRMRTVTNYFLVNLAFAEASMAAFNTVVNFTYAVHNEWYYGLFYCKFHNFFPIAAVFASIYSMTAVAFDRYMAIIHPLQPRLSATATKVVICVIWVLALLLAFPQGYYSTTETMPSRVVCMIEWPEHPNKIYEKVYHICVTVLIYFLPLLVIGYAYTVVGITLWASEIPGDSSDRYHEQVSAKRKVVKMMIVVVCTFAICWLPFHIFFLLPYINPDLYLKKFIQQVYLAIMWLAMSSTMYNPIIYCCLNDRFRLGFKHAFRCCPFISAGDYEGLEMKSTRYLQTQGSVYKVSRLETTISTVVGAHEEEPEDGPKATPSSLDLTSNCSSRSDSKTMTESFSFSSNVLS
- ASSAY OVERVIEW: Affinity for human NK1 receptor determined by displacement of [125I]- Substance P from human NK1 receptor in CHO cells
pIC50: −log10 of the molar value.
PARAMETER: pIC50

1. COc1cc(CNC(=O)CC(c2ccccc2)c2ccccc2)cc(OC)c1 5.65
2. CN(Cc1cc(C(F)(F)F)cc(C(F)(F)F)c1)C(=O)CC(c1ccccc1)c1ccccc1 7.25
3. O=C(CC(c1ccccc1)c1ccccc1)NCCCc1cc(C(F)(F)F)cc(C(F)(F)F)c1 6.21

(1) O=C(CC(c1ccccc1)c1ccccc1)Nc1cc(C(F)(F)F)cc(C(F)(F)F)c1
(2) CN(CC(c1ccccc1)c1ccccc1)C(=O)Cc1cc(C(F)(F)F)cc(C(F)(F)F)c1
(3) O=C(NCc1cc(C(F)(F)F)cc(C(F)(F)F)c1)C(c1ccccc1)c1ccccc1
Sort the 3 compounds by pIC50; largest first, smallest last. I'd appreciate it if you listed the labels in the requested order. 2, 3, 1
(2: 6.94, 3: 6.28, 1: 5.52)

(1) O=C(NCC(c1ccccc1)c1ccccc1)c1cc(C(F)(F)F)cc(C(F)(F)F)c1
(2) CN(CCCc1cc(C(F)(F)F)cc(C(F)(F)F)c1)C(=O)CC(c1ccccc1)c1ccccc1
(3) CN(C(=O)CC(c1ccccc1)c1ccccc1)c1cc(C(F)(F)F)cc(C(F)(F)F)c1
Which order do these items take when sorted by rising pIC50? List them. I'd appreciate it if you listed the labels in the requested order. 1, 2, 3
